Target: T1, mouse LAG3, full length, stably expressed on CHOK1 cells (mouse, UniProt Q61790 24-521)
T1 construct: whole, on cells
T1 sequence (looked up): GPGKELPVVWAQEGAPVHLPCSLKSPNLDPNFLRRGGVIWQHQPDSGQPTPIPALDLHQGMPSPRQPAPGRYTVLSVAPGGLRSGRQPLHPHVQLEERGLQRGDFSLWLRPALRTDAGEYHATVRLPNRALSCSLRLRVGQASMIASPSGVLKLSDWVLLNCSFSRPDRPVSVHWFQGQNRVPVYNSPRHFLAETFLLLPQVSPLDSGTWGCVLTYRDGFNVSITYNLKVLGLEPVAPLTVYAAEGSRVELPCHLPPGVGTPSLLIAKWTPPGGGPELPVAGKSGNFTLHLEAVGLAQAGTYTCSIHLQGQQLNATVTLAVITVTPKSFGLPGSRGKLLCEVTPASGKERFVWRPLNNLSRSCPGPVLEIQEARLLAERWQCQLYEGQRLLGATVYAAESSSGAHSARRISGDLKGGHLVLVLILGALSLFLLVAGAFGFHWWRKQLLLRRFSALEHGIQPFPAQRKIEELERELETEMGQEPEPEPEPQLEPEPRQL
Assay: FACS on CHOK1 cells expressing mouse LAG3

{"Binder": "Antibody 023 (antibody, V domains shown, mouse hybridoma antibody) VH: QIQLVQSGPVLKKPGETVKISCKASGYTFTESPMNWVKQAPGRGFKWMGMIYTDTGEPTYAEEFKGRFAFSLETSASTAYLQINNLKSEDTATYFCVSDYGSILYWYFDVWGTGTTVTVSS VL: DIVMTQSHKFMSTSVGDRVSITCKASQDVSTAVAWYQQTPGQSPKLLIYSASYRYTGVPDRFTGSGSGTDFTFTISSVQAEDLAVYYCQQHYNSPPTFGAGTKLELK", "binding result": "no binding"}
{"Binder": "Antibody 033 (antibody, V domains shown, mouse hybridoma antibody) VH: EVQLQQSGAELVRPGASVKLSCTASDFNIKDDYIHWVKQRPEQGLEWIGWIDLENGDTEYASKFQGKATITADTSSNTAYLQLSSLTSEDTAVYYCTTKGSHWGQGTLVTVSA VL: DVVMTQIPLSLPVSLGDQASISCRSSQSLVYSNGNTYLNWYLQKPGQSPKLLIHKVSNRFSGVPDRFSGSGSGTDFTLKISRVEAEDLGVYFCSQSTHVPYTFGGGTKLEIR", "binding result": "no binding"}
